Molecular target: T1, monomeric human PRLR (hPRLR.mmh; SEQ ID NO:401) (Homo sapiens, UniProt P16471)
T1 construct: soluble monomeric (hPRLR.mmh); mmh (myc-myc-hexahistidine) (C)
T1 sequence (P16471 with tags, fused parts or gaps): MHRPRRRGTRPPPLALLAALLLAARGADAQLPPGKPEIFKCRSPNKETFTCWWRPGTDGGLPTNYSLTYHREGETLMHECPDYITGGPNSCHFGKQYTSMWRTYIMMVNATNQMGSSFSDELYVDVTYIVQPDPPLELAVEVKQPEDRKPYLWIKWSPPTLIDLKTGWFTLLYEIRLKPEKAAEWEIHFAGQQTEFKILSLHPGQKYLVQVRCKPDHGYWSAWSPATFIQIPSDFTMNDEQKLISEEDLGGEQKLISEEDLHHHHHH
Assay: Surface plasmon resonance (Biacore T200), antibody-capture format
Type: binding
Details: 37° C., analyte hPRLR.mmh
Overview of recorded ka for various molecules
Form entry: value (M/s) — number only.

molecule	measure.name	meas.value
H1H6792P: fully human anti-PRLR antibody, human IgG1 Fc; HCVR/LCVR SEQ ID NOs 130/138 (antibody, V domains shown) VH: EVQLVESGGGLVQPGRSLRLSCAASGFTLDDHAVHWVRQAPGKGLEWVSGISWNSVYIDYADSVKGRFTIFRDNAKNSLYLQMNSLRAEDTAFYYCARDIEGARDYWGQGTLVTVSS VL: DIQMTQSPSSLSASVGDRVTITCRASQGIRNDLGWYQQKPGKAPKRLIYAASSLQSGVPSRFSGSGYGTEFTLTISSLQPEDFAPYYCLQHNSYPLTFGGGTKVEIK	ka	435000
H1H6762P: fully human anti-PRLR antibody, human IgG1 Fc; HCVR/LCVR SEQ ID NOs 2/10 (antibody, V domains shown) VH: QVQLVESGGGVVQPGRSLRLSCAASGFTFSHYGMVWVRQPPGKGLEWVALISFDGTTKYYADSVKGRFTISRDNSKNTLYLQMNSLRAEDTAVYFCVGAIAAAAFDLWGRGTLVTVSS VL: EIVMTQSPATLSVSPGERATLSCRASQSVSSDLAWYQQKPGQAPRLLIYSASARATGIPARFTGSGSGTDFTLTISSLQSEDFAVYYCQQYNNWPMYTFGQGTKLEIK	ka	948000
H1H6959N2: anti-PRLR antibody, human IgG1 Fc form of H2M6959N2 of Table 1; HCVR/LCVR SEQ ID NOs 306/314 (antibody, V domains shown) VH: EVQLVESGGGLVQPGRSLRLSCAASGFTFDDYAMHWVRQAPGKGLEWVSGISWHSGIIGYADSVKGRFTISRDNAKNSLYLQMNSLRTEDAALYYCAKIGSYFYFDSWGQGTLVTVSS VL: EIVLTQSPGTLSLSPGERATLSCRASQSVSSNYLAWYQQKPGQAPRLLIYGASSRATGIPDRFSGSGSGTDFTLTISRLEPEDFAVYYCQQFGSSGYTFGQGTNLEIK	ka	40600

Request: Reported ka, molecule H1H6790P: fully human anti-PRLR antibody, human IgG1 Fc; HCVR/LCVR SEQ ID NOs 114/122 (antibody, V domains shown) VH: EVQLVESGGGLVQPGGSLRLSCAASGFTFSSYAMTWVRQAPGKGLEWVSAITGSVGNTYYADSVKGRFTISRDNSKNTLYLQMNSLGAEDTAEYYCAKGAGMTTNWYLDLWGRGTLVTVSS VL: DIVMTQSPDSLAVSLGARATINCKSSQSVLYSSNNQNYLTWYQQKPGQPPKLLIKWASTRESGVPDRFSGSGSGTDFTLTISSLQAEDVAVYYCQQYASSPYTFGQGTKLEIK : ____
Response: 940000
